# credit: ChEMBL document CHEMBL1629645

assay: Half life in cage fluid of Albino guiena pig at 50 mg/kg, ip; details: guinea pig
endpoint-name: half-life (h)

{"columns": ["smiles-entry", "value-reported"],
 "data": [
  ["CC(=O)NC[C@H]1CN(c2ccc(N3CCOCC3)c(F)c2)C(=O)O1", 3.5]
]}

----------
test: Cmin in cage fluid of Albino guiena pig at 25 mg/kg, ip after 12 hrs; format: ADME, organism-based, Cavia porcellus; set-up: dose 25 mg/kg, route intraperitoneal; settings: guinea pig, read-out: Cmin

{"columns": ["smiles-entry", "output-unit", "concentration at 12 h"],
 "data": [
  ["CC(=O)NC[C@H]1CN(c2ccc(N3CCOCC3)c(F)c2)C(=O)O1", "ng/mL", 3000]
]}
